Please respond with reported TGI for every item in the list.
Test system: SR leukemia
Test: NCI tumour cell line growth inhibition, 48 h
Where a SMILES comes first, the peptide text is derived from it. Bridges are numbered along the chain shown (N, C = ends). [ ]: non-standard residue; d: D form. The star is where a group is joined. ξ: configuration not given here. X26 = O=C(/C=C/C=C/C=C/C=C/C=C/C(=O)*)NC1=C(O)CCC1=O; NMeA = CN[C@@H](C)C(=O)O; ξF = NC(Cc1ccccc1)C(=O)O; ξA = CC(N)C(=O)O

Use the examples below as a reference point.
COMPOUND	TGI
COc1cc2c(/C=N\N=C(N)N)c[nH]c2cc1C	30.1 µM
C(=Nc1ccc(-c2nc3ccccc3o2)cc1)c1ccco1	> 100 µM
O=C(Oc1cc(=O)c(OC(=O)c2ccccc2)co1)c1ccccc1	> 100 µM
C(/C=C(\Nc1ccccc1)C12CC3CC(CC(C3)C1)C2)=Nc1ccccc1	30.4 µM
Cc1ccc(C)c(N2C/C(=N\NC(=O)CC#N)C(c3nc4ccccc4s3)C(=O)C2=O)c1 (stereo unspecified)	> 100 µM

Okay, now this compound:
Prompt line: Can you look up the measured TGI of CC1NC(=O)[C@H](C)N(C)C(=O)[C@@H]2CCCN2C(=O)[C@@H](NC(=O)C(Cc2ccccc2)NC(=O)/C=C/C=C/C=C/C=C/C=C/C(=O)NC2=C(O)CCC2=O)COC(=O)[C@@H]2CCCN2C1=O (stereo partly specified) (X26-[ξF]SP[NMeA][ξA]P; ester 2-C) for me?
Response line: > 100 µM

All values here come from PubChem BioAssay (NCI).
